Experiment: MTT assay for cellular toxicity
Conditions: African green monkey
Response field label takes met when CC50 at 48 h is strictly below 100 µM and not met in all other cases.

molecule: Cc1n[nH]c2c1C(c1cccs1)C(C#N)=C(/N=C/c1nncn1C)O2 (stereo not drawn)
label class: met

Is CC50 at 48 h strictly under 100 µM for the entry Cc1n[nH]c2c1C(c1cccs1)C(C#N)=C(/N=C/[C@H](O)[C@@H](O)[C@H](O)CO)O2 (stereo partly drawn) ?
not met

Is CC50 at 48 h strictly under 100 µM for the entry Cc1n[nH]c2c1C(c1cccs1)c1c(N)ncnc1O2 (stereo not drawn) ?
not met

Is CC50 at 48 h strictly under 100 µM for the entry COP(=O)(OC)C1(c2csnn2)NC2=C(C1=O)C(c1cccs1)c1c(C)n[nH]c1O2 (stereo not drawn) ?
not met

Is CC50 at 48 h strictly under 100 µM for the entry Cc1n[nH]c2c1C(c1cccs1)C(C#N)=C(/N=C/[C@@H](O)[C@@H](O)[C@H](O)[C@H](O)CO)O2 (stereo partly drawn) ?
not met

Is CC50 at 48 h strictly under 100 µM for the entry Cc1n[nH]c2c1C(c1cccs1)C(C#N)=C(N1C(=O)CSC1c1nncn1C)O2 (stereo not drawn) ?
met

Is CC50 at 48 h strictly under 100 µM for the entry Cc1n[nH]c2c1C(c1cccs1)C(C#N)=C(/N=C/[C@@H](O)[C@H](O)[C@H](O)CO)O2 (stereo partly drawn) ?
not met

Is CC50 at 48 h strictly under 100 µM for the entry Cc1n[nH]c2c1C(c1cccs1)C(C#N)=C(/N=C/[C@H](O)[C@@H](O)[C@@H](O)[C@H](O)CO)O2 (stereo partly drawn) ?
not met

Is CC50 at 48 h strictly under 100 µM for the entry Cc1n[nH]c2c1C(c1cccs1)c1c(ncn3[nH]c(=S)nc13)O2 (stereo not drawn) ?
met

Is CC50 at 48 h strictly under 100 µM for the entry Cc1n[nH]c2c1C(c1cccs1)c1c(ncn3nc(-c4nc[nH]n4)nc13)O2 (stereo not drawn) ?
met

Is CC50 at 48 h strictly under 100 µM for the entry Cc1n[nH]c2c1C(c1cccs1)c1c(ncn3ncnc13)O2 (stereo not drawn) ?
met

Is CC50 at 48 h strictly under 100 µM for the entry Cc1n[nH]c2c1C(c1cccs1)C(C#N)=C(N1C(=O)C(Cl)C1c1nncn1C)O2 (stereo not drawn) ?
not met

Is CC50 at 48 h strictly under 100 µM for the entry CCO/C=N/C1=C(C#N)C(c2cccs2)c2c(C)n[nH]c2O1 (stereo not drawn) ?
not met

Is CC50 at 48 h strictly under 100 µM for the entry Cc1n[nH]c2c1C(c1cccs1)c1c(ncn(N)c1=N)O2 (stereo not drawn) ?
met

Is CC50 at 48 h strictly under 100 µM for the entry Cc1n[nH]c2c1C(c1cccs1)C1=C(NC(c3csnn3)c3c(C(F)(F)F)nn(C)c3OC1=N)O2 (stereo not drawn) ?
met
